test system: Mus musculus; assay: Post-MPTP % recovery of striatal dopaminergic innervation relative to MPTP-treated mice after peroral administration at dose of 10 mg/kg; format: functional, organism-based; parameters: dose 10 mg/kg

Smiles record	Unit spec	Recovery
CCC(C)(C)C(=O)C(=O)N1CCC[C@H]1C(=O)OCCCc1cccnc1	%	35
CCC(C)(C)C(=O)C(=O)N1CCC[C@H]1C(=O)CCCCc1cccnc1	%	34
CC(C)(C)C(=O)C(=O)N1CCC[C@H]1C(=O)CCCc1ccccc1	%	35
CC(C)(C)C(=O)C(=O)N1CCCC[C@H]1C(=O)CCCCCc1ccccc1	%	36
CCC(C)(C)C(=O)C(=O)N1CCC[C@H]1C(=O)CCCC(c1ccc(F)cc1)c1ccc(F)cc1	%	54
CCC(C)(C)C(=O)C(=O)N1CCC[C@H]1C(=O)CCCCc1ccc(O)cc1	%	33.5
CCC(C)(C)C(=O)C(=O)N1CCC[C@H]1C(=O)CCCCCc1ccccc1	%	48
O=C(C(=O)N1CCC[C@H]1C(=O)CCCCc1ccccc1)C1CCCCC1	%	62.2
CCC(C)(C)C(=O)C(=O)N1CCC[C@H]1C(=O)CCCCc1c(F)c(F)c(C(F)(F)F)c(F)c1F	%	27
